Source: patent US9427442B2

# Assay name: Human metabolic stability half-life assay
# Type: in vitro ADME
# Test settings: human liver microsomes, NADPH, 0.5 μM compound, 45-minute time course
Measured quantity: HLM (t1/2, min)
Field format: number, assumed min, no unit text.

Solved entries (count: 3):
INSERT INTO measurements (compound, measured_quantity, reported) VALUES
  ('C=CC[C@H](C(N)=O)[C@@H](CC(C)C)C(=O)N[C@H]1N=C(c2ccccc2)c2ccccc2N(CCC)C1=O [Comparative Compound 29, reference compound]', 'HLM (t1/2, min)', 3),
  ('CCCC[C@H](C(N)=O)[C@@H](CC(C)C)C(=O)N[C@H]1N=C(c2ccc(Cl)cc2)c2ccccc2N(C)C1=O [Comparative Compound 28, reference compound]', 'HLM (t1/2, min)', 6),
  ('C=CC[C@H](C(N)=O)[C@@H](CC(C)C)C(=O)N[C@H]1N=C(c2ccccc2)c2cc(Cl)ccc2N(C)C1=O [Comparative Compound 27, reference compound]', 'HLM (t1/2, min)', 6);

Hello, please tell me recorded HLM (t1/2, min) for this one: CCC[C@H](C(N)=O)[C@@H](CC(C)C)C(=O)N[C@H]1N=C(c2ccccc2)c2ccccc2N(C)C1=O [Comparative Compound 26, reference compound] 8

###

In this section, each of the compounds is paired with its reported half-life at 0.5 µM.
# Assay name: Human metabolic stability half-life assay
# Assay type: in vitro ADME
# Test settings: pH 7.4; human liver microsomes, NADPH, 0.5 μM compound, 45-minute time course; read-out: HLM (t1/2, min)
The reply should contain only the number, in min.

// solved cases for half-life at 0.5 µM follow
INSERT INTO assay_data (compound, measured_quantity, reported) VALUES
  ('Cc1cccc2c1NC(=O)[C@@H](NC(=O)[C@H](CCC(F)(F)F)[C@H](CC1CC(F)(F)C1)C(N)=O)N=C2c1ccccc1 [Example 1]', 'half-life at 0.5 µM', 60),
  ('C[C@@H](C[C@H](C(N)=O)[C@@H](CCC(F)(F)F)C(=O)N[C@H]1N=C(c2ccccc2)c2cccc(Cl)c2NC1=O)C(F)(F)F [Example 23]', 'half-life at 0.5 µM', 111),
  ('C[C@H](C[C@H](C(N)=O)[C@@H](CCC(F)(F)F)C(=O)N[C@H]1N=C(c2ccccc2)c2cccc(Cl)c2NC1=O)C(F)(F)F [Example 22]', 'half-life at 0.5 µM', 117),
  ('Cc1cccc(C2=N[C@H](NC(=O)[C@H](CCC(F)(F)F)[C@H](CC3CC(F)(F)C3)C(N)=O)C(=O)Nc3c(Cl)cccc32)c1 [Example 10]', 'half-life at 0.5 µM', 69),
  ('C[C@@H](C[C@H](C(N)=O)[C@@H](CCC(F)(F)F)C(=O)N[C@H]1N=C(c2ccccc2)c2cccc(F)c2NC1=O)C(F)(F)F [Example 19]', 'half-life at 0.5 µM', 80),
  ('NC(=O)[C@@H](C1CCC(F)(F)CC1)[C@@H](CCC(F)(F)F)C(=O)N[C@H]1N=C(c2ccccc2)c2cccc(Cl)c2NC1=O [Example 5]', 'half-life at 0.5 µM', 72),
  ('NC(=O)[C@@H](CC1CC(F)(F)C1)[C@@H](CCC(F)(F)F)C(=O)N[C@H]1N=C(c2ccccc2)c2cccc(C3CC3)c2NC1=O [Example 12]', 'half-life at 0.5 µM', 41);

Turning to the following compound.
Could you please provide reported half-life at 0.5 µM for COc1cccc2c1NC(=O)[C@@H](NC(=O)[C@H](CCC(F)(F)F)[C@H](CC1CC(F)(F)C1)C(N)=O)N=C2c1ccccc1 [Example 8] ? Thanks! 58

###

Measured half-life at 0.5 µM, listed per entry for reference.
# Assay name: Human metabolic stability half-life assay
# Format: in vitro ADME
# Test settings: pH 7.4; human liver microsomes, NADPH, 0.5 μM compound, 45-minute time course; read-out: HLM (t1/2, min)

INSERT INTO assay_data (chemical_structure, reported) VALUES
  ('NC(=O)[C@@H](CC1CC(F)(F)C1)[C@@H](CCC(F)(F)F)C(=O)N[C@H]1N=C(c2ccccc2)c2cccc(OC3CC3)c2NC1=O', '> 120 min'),
  ('CC(F)(F)C[C@H](C(N)=O)[C@@H](CCC(F)(F)F)C(=O)N[C@H]1N=C(c2ccccc2)c2ccccc2NC1=O', '> 120 min');

In the following, a different molecule is considered.
Entry CC(F)(F)CC[C@H](C(N)=O)[C@@H](CCC(F)(F)F)C(=O)N[C@H]1N=C(c2ccccc2)c2cccc(Cl)c2NC1=O needs its half-life at 0.5 µM filled in; supply it. > 120 min

###

# Assay name: Human metabolic stability half-life assay
# Assay type: in vitro ADME
# Test settings: pH 7.4; human liver microsomes, NADPH, 0.5 μM compound, 45-minute time course; read-out: HLM (t1/2, min)
The compounds listed here are annotated with their half-life at 0.5 µM.

Examples with answers:
INSERT INTO assay_data (compound, reported) VALUES
  ('NC(=O)[C@@H](CC1CC(F)(F)C1)[C@@H](CCC(F)(F)F)C(=O)N[C@H]1N=C(c2ccccc2)c2cccc(F)c2NC1=O [Example 14]', '> 120 min'),
  ('NC(=O)[C@@H](CC1CC(F)(F)C1)[C@@H](CCC(F)(F)F)C(=O)N[C@H]1N=C(c2ccccc2)c2cccc(Cl)c2NC1=O [Example 13]', '> 120 min');

// next item, half-life at 0.5 µM requested
Indicate the recorded half-life at 0.5 µM value for this compound: NC(=O)[C@@H](C1CCC(C(F)(F)F)CC1)[C@@H](CCC(F)(F)F)C(=O)N[C@H]1N=C(c2ccccc2)c2cccc(Cl)c2NC1=O (stereo partly drawn) [Example 4] > 120 min
